measured target: T1, recombinant human CD63 extracellular loop 2 expressed with a C-terminal Myc-Myc-hexahistidine (human)
T1 construct: also called hCD63 EC loop 2-MMH; human CD63 EC loop 2-MMH
T1 sequence (chain, as listed by the source limits assumed): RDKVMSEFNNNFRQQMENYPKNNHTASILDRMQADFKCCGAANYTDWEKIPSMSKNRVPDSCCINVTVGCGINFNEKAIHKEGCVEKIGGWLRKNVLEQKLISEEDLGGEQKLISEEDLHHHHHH
measurement protocol: SPR Biacore, mAb captured, 25C
readout label: t1/2
Express the reported value numerically, then name its unit.

Consider the reported t1/2 for these binders:
| binder | t1/2 |
| --- | --- |
| H2M12387N (antibody, V domains shown, also called H2aM12387N) VH: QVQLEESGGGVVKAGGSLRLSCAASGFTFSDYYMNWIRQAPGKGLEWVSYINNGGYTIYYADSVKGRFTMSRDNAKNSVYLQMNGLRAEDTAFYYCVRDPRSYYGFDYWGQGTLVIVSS VL: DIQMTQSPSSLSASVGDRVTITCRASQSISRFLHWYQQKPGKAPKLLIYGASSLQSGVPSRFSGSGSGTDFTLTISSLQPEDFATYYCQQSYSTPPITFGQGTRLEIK | 21 min |
| H1M12388N (antibody, V domains shown) VH: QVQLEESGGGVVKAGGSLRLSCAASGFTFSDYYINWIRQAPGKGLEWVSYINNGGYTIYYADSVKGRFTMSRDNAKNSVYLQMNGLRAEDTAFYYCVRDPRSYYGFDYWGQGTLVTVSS VL: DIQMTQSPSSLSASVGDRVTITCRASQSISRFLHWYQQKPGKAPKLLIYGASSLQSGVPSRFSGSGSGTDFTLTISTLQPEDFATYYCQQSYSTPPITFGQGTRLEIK | 20 min |
| H2M12452N (antibody, V domains shown, also called H2aM12452N) VH: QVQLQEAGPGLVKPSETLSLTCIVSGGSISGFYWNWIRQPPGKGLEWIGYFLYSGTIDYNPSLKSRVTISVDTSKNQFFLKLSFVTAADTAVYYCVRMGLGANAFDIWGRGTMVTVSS VL: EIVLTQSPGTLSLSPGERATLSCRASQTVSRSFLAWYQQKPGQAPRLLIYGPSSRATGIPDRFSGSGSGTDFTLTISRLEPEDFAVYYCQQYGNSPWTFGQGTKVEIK | 19 min |
| H2M13022N (antibody, V domains shown, also called H2bM13022N) VH: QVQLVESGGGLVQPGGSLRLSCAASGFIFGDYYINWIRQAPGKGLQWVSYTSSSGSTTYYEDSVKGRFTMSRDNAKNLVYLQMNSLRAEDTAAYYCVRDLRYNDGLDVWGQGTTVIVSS VL: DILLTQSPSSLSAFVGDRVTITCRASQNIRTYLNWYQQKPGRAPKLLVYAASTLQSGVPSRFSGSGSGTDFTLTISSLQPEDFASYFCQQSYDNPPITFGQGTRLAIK | 9 min |
| H1M12362N (antibody, V domains shown) VH: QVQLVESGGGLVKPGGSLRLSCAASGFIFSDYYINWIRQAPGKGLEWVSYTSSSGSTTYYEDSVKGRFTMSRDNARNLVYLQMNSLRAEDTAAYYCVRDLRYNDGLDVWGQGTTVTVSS VL: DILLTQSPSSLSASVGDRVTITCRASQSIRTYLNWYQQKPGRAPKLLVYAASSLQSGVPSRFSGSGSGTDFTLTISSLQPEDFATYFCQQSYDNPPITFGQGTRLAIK | 8 min |

Provide t1/2 values for the following items, in order.
1. H1M12451N (antibody, V domains shown) VH: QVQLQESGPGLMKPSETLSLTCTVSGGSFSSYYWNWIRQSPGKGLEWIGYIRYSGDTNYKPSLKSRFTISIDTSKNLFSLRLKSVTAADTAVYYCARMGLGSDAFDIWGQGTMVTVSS VL: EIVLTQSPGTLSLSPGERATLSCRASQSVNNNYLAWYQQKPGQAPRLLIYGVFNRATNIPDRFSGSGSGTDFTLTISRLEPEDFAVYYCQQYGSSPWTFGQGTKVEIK
2. H2M12454N (antibody, V domains shown, also called H2bM12454N) VH: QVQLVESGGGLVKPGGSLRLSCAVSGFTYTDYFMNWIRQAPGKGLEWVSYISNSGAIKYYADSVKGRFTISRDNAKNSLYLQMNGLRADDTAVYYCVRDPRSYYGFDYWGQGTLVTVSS VL: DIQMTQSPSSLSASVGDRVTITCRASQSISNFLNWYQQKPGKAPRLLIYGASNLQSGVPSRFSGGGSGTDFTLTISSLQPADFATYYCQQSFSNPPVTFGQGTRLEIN
3. H1M12386N (antibody, V domains shown) VH: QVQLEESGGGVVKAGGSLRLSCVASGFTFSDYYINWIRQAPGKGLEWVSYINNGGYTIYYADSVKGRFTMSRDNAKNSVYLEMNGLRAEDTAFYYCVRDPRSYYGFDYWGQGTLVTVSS VL: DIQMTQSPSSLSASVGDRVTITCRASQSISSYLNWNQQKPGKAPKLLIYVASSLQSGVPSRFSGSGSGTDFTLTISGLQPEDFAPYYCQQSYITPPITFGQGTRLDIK
4. H2M12450N (antibody, V domains shown, also called H2aM12450N; mAb12450) VH: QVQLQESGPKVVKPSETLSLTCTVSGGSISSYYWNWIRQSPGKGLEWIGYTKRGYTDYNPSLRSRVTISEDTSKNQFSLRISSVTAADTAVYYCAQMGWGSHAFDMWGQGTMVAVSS VL: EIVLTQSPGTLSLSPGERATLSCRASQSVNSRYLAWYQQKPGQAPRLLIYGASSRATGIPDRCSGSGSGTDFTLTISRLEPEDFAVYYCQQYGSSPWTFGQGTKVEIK
5. H2M12385N (antibody, V domains shown, also called H2bM12385N; H2bM12385) VH: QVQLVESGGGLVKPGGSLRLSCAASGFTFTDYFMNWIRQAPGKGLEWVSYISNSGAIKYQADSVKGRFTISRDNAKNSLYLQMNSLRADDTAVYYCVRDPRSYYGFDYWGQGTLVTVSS VL: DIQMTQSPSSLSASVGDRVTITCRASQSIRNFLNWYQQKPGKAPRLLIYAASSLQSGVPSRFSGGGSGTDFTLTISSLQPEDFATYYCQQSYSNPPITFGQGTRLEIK

Output:
1: 27 min; 2: 6 min; 3: 32 min; 4: 41 min; 5: 3 min

Input: Return value of t1/2 for input H2M12395N (antibody, V domains shown, also called H2aM12395N) VH: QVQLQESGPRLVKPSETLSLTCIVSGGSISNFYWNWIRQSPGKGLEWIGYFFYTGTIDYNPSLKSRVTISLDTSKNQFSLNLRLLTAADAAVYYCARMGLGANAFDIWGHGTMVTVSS VL: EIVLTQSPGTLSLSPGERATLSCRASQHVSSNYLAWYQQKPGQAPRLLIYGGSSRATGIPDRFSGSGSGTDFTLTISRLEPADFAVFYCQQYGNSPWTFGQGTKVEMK , no commentary.
Output: 6 min
